target_of_assay: Nuclear factor NF-kappa-B complex (Homo sapiens) (UniProt Q00653+P19838+Q04206)
Sequence (P19838 whole entry, looked up): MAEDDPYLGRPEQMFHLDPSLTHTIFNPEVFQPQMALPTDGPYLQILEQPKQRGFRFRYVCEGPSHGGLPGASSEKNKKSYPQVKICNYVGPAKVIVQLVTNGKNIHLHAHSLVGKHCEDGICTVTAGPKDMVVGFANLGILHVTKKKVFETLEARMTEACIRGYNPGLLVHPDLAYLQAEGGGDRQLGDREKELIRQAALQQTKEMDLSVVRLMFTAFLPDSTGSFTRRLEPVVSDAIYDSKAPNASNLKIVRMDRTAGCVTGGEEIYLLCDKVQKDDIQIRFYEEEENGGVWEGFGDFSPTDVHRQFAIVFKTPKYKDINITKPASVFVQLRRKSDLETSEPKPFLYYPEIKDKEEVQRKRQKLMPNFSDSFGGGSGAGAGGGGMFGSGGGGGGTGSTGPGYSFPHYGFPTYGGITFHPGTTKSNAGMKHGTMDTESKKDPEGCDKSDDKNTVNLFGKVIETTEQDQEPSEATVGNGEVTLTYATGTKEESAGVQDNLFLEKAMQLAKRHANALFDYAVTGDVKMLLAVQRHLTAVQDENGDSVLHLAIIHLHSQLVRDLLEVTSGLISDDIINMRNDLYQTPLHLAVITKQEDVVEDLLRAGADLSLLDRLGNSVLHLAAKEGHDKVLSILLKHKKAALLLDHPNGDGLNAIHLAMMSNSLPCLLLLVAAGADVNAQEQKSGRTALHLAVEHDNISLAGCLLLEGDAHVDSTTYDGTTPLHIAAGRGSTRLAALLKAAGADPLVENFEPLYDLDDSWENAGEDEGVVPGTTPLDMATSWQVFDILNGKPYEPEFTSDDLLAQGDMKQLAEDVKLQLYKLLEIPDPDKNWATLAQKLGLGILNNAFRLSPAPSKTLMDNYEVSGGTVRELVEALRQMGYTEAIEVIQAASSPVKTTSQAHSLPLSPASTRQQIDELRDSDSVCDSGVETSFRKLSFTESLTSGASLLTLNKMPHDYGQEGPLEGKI
Sequence (Q00653 whole entry, looked up): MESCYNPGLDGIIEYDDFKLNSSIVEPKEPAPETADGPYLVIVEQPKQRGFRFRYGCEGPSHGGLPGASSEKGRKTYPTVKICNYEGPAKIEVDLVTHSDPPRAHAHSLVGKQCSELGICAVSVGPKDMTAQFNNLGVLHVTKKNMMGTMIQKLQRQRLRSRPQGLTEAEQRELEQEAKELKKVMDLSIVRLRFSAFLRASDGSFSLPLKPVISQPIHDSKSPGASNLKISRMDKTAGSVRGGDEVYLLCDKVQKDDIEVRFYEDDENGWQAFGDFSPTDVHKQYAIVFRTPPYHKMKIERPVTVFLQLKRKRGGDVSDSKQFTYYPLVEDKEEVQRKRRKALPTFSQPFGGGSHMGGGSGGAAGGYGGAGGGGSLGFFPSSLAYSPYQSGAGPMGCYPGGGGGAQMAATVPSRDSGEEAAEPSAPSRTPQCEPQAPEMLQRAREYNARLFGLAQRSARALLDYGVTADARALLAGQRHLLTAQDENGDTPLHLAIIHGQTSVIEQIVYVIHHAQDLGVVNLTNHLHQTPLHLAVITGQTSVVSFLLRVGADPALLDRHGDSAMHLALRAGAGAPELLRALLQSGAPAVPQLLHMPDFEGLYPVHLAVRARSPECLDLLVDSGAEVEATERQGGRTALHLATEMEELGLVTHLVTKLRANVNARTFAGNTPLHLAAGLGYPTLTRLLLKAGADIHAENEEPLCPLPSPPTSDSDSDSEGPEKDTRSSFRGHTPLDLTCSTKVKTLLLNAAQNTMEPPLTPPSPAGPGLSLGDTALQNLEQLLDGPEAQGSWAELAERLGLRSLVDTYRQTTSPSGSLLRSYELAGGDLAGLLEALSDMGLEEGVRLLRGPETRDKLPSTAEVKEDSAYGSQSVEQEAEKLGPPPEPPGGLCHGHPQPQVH
Sequence (Q04206 whole entry, looked up): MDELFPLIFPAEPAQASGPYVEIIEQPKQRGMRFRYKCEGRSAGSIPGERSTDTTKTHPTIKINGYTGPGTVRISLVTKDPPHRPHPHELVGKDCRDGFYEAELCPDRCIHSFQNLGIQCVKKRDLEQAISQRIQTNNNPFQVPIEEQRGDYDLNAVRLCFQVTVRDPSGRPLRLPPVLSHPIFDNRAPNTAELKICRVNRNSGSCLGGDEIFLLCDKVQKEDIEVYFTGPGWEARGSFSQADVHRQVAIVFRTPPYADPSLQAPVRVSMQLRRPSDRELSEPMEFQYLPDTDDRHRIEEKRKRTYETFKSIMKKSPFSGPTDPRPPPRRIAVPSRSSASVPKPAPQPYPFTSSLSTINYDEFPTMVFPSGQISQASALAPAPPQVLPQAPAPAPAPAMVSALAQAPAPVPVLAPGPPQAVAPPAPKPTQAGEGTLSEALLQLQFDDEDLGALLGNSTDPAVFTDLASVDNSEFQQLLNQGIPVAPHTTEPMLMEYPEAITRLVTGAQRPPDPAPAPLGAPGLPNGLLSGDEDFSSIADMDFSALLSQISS
assay_info: Inhibition of transcriptional activity of NF-kappaB (unknown origin) transfected in LPS-stimulated mouse RAW264.7 cells at 100 uM after 16 hrs by secretory alkaline phosphatase reporter gene assay relative to control
Assay type: cell-based
measurement_label: inhibition (%)
The answer is to be given in %; state only the numeric part.

Example compounds with recorded inhibition:
{"compound": "CCNCC1CCc2ccc3ccccc3c2O1 (stereo unspecified)", "data_value": 39}
{"compound": "CC(C)C(=O)NCC1CCc2ccc3ccccc3c2O1 (stereo unspecified)", "data_value": 31}
{"compound": "O=C(Nc1cc(Cl)cc(Cl)c1)C1CCc2ccc3ccccc3c2O1 (stereo unspecified)", "data_value": 52}

Attention now shifts to the item below.
Sure, the documented inhibition for Clc1ccc(NCC2CCc3ccc4ccccc4c3O2)cc1 (stereo unspecified) is 94

###

inhibition values for the compounds below.
target_of_assay: Nuclear factor NF-kappa-B complex (Homo sapiens) (UniProt Q00653+P19838+Q04206)
assay_info: Inhibition of transcriptional activity of NF-kappaB (unknown origin) transfected in LPS-stimulated mouse RAW264.7 cells at 100 uM after 16 hrs by secretory alkaline phosphatase reporter gene assay relative to control
Assay type: cell-based
Report the value in % with no unit label.

Completed entries (count: 8):
{"compound": "FC(F)(F)c1cc(NCC2CCc3ccc4ccccc4c3O2)cc(C(F)(F)F)c1 (configuration not stated)", "unit_abbrev": "%", "inhibition": 96}
{"compound": "CC(C)CC(=O)NCC1CCc2ccc3ccccc3c2O1 (configuration not stated)", "unit_abbrev": "%", "inhibition": 77}
{"compound": "O=C(Nc1ccccc1)C1CCc2ccc3ccccc3c2O1 (configuration not stated)", "unit_abbrev": "%", "inhibition": 62}
{"compound": "c1ccc(NCC2CCc3ccc4ccccc4c3O2)cc1 (configuration not stated)", "unit_abbrev": "%", "inhibition": 49}
{"compound": "Clc1cccc(NCC2CCc3ccc4ccccc4c3O2)c1 (configuration not stated)", "unit_abbrev": "%", "inhibition": 36}
{"compound": "FC(F)(F)c1ccc(NCC2CCc3ccc4ccccc4c3O2)cc1 (configuration not stated)", "unit_abbrev": "%", "inhibition": 42}
{"compound": "O=C(Nc1ccc(Cl)c(Cl)c1)C1CCc2ccc3ccccc3c2O1 (configuration not stated)", "unit_abbrev": "%", "inhibition": 40}
{"compound": "O=C(Nc1ccccc1O)C1CCc2ccc3ccccc3c2O1 (configuration not stated)", "unit_abbrev": "%", "inhibition": 91}

# inhibition of CC(=O)NCC1CCc2ccc3ccccc3c2O1 (configuration not stated) = 35

###

target_of_assay: Nuclear factor NF-kappa-B complex (Homo sapiens) (UniProt Q00653+P19838+Q04206)
assay_info: Inhibition of transcriptional activity of NF-kappaB (unknown origin) transfected in LPS-stimulated mouse RAW264.7 cells at 100 uM after 16 hrs by secretory alkaline phosphatase reporter gene assay relative to control
Type: cell-based
measurement_label: inhibition (%)
Please give a number only; it is taken to be in %.

{"compound": "O=C(Nc1cc(C(F)(F)F)cc(C(F)(F)F)c1)C1CCc2ccc3ccccc3c2O1 (configuration not stated)", "target_of_assay": "Nuclear factor NF-kappa-B complex (Homo sapiens) (UniProt Q00653+P19838+Q04206)", "measurement_label": "inhibition", "data_value": 66}
{"compound": "O=C(Nc1cccc(Cl)c1)C1CCc2ccc3ccccc3c2O1 (configuration not stated)", "target_of_assay": "Nuclear factor NF-kappa-B complex (Homo sapiens) (UniProt Q00653+P19838+Q04206)", "measurement_label": "inhibition", "data_value": 87}

Here COc1ccc(NCC2CCc3ccc4ccccc4c3O2)cc1 (configuration not stated) was tested on Nuclear factor NF-kappa-B complex (Homo sapiens) (UniProt Q00653+P19838+Q04206), and its inhibition came to 88
